Here, each record is paired with measured chromatographic logD data.
- Assay Explanation: Chromatographic LogD7.4
- Type: physicochemical
- Run Conditions: gradient HPLC, Phenomenex Synergi Hydro-RP column, pH 7.4
Format: numeric value only, no unit, no commentary.

Which chromatographic logD is listed for O=C1Nc2ccc(S(F)(F)(F)(F)F)cc2C(=O)CCc2ccccc21 ?
3.3

Same thing, different compound: O=C1Nc2ccccc2C(=NO)CCc2ccccc21
1.8

Here is the next compound: O=C1Nc2ccccc2C(=O)CCCc2ccccc21
1.9

O=C1CCc2ncccc2C(=O)Nc2ccccc21 ?
0.9

And then O=C1CCc2ccccc2C(=O)c2ccccc2N1 , what is it?
1.9

// same read-out, input: O=C1CCc2c(O)cccc2C(=O)Nc2ccccc21
1.3

Repeat with CO/N=C1\CCc2ccccc2C(=O)Nc2ccccc21
2.5

Next: O=C1Nc2cc(F)cc(F)c2C(=O)CCc2ccccc21
2.5

***
Data request, read-out chromatographic logD, for O=C1Nc2ccccc2C(O)CCc2ccccc21 (centres unmarked)
1.5

Okay, and O=C1Nc2ccc(OC(F)(F)F)cc2C(=O)CCc2ccccc21 ?
3.1

And then N#Cc1ccc2c(c1)C(=O)CCc1ccccc1C(=O)N2 , what is it?
2.1

Now the compound NC(=O)c1ccc2c(c1)C(=O)CCc1ccccc1C(=O)N2
0.8

Then what about the compound O=C1CCc2ccccc2CC(=O)c2ccccc2N1 ?
2.1

And CCOC(=O)c1ccc2c(c1)C(=O)CCc1ccccc1C(=O)N2 ?
2.6
